- MEASURED ON: human immunoproteasome (i20S) β5 (Homo sapiens, UniProt P20618+P28062)
- MEASUREMENT DESCRIPTION: Proteasome subunit inhibition, i20S β5
- Assay type: biochemical
- ASSAY CONDITIONS: read-out: i20S β5 IC50 ± SD; read 60 to 90 minutes after start
I'd appreciate it if you could supply pIC50 values for the items below.
Bear in mind: pIC50 is minus log10 of a mol/L concentration; give just that figure.

## Input Write down measured pIC50 (human immunoproteasome (i20S) β5 (Homo sapiens, UniProt P20618+P28062)) for this compound. `CC(C)C[C@H](NC(=O)[C@@H]1Cc2c(F)c(F)c(c(F)c2F)Sc2cccc(c2)CC(=O)N[C@@H](C(C)C)C(=O)N1)C(=O)[C@@]1(C)CO1`
## Output 6.27

## Input Write down measured pIC50 (human immunoproteasome (i20S) β5 (Homo sapiens, UniProt P20618+P28062)) for this compound. `CC(C)C[C@H](NC(=O)[C@@H]1Cc2c(F)c(F)c(c(F)c2F)Sc2cccc(c2)CC(=O)N[C@@H]([C@@H](C)O)C(=O)N1)C(=O)[C@@]1(C)CO1`
## Output 6.07

## Input Write down measured pIC50 (human immunoproteasome (i20S) β5 (Homo sapiens, UniProt P20618+P28062)) for this compound. `CC(C)C[C@H](NC(=O)[C@@H]1CSCCCCCCCCCC(=O)N[C@@H](C(C)C)C(=O)N1)C(=O)[C@@]1(C)CO1`
## Output 7.19

----------
- MEASUREMENT DESCRIPTION: Plasma stability
- Assay type: in vitro ADME
- ASSAY CONDITIONS: mouse, plasma, Plasma Stability % remaining, after 2 hr
I'd appreciate it if you could supply remaining at 2 h values for the items below.
Please give a number only; it is taken to be in %.

## Input Tell me measured remaining at 2 h for C[C@@]12OC(=O)[C@]1([C@@H](O)[C@@H]1C=CCCC1)NC(=O)[C@@H]2CCCl [Marizomib, reference compound] please.
## Output 20

## Input Tell me measured remaining at 2 h for CC(C)C[C@H](NC(=O)[C@H](CCc1ccccc1)NC(=O)CN1CCOCC1)C(=O)N[C@@H](Cc1ccccc1)C(=O)N[C@@H](CC(C)C)C(=O)[C@@]1(C)CO1 [Carfilzomib, reference compound] please.
## Output 99

----------
I'd appreciate it if you could supply Mean Permeability values for the items below.
- MEASUREMENT DESCRIPTION: PAMPA-BBB permeability assay
- ASSAY CONDITIONS: PAMPA-BBB

## Input Tell me measured Mean Permeability for `CC(C)C[C@H](NC(=O)[C@@H]1Cc2c(F)c(F)c(c(F)c2F)Sc2cccc(c2)CC(=O)NC(C)(C)C(=O)N1)C(=O)[C@@]1(C)CO1` please.
## Output 3.70 10^−6 cm/sec

## Input Tell me measured Mean Permeability for CC(C)C[C@H](NC(=O)[C@@H]1Cc2ccc(cc2)S(=O)(=O)CCCCCC(=O)NC(C(C)C)C(=O)N1)C(=O)[C@@]1(C)CO1 (stereo partly shown) please.
## Output 0.27 10^−6 cm/sec

## Input Tell me measured Mean Permeability for `CC(C)C[C@H](NC(=O)[C@@H]1Cc2c(F)c(F)c(c(F)c2F)S(=O)(=O)c2cccc(c2)CC(=O)N[C@@H](C(C)(C)O)C(=O)N1)C(=O)[C@@]1(C)CO1` please.
## Output 2.06 10^−6 cm/sec

## Input Tell me measured Mean Permeability for `CC(C)C[C@H](NC(=O)[C@@H]1Cc2c(F)c(F)c(c(F)c2F)S(=O)(=O)c2cccc(c2)CC(=O)N[C@@H](C(C)C)C(=O)N1)C(=O)[C@@]1(C)CO1` please.
## Output 2.15 10^−6 cm/sec

## Input Tell me measured Mean Permeability for `CC(C)C[C@H](NC(=O)[C@@H]1Cc2c(F)c(F)c(c(F)c2F)S(=O)(=O)c2cccc(c2)CC(=O)N[C@@H]([C@H](C)O)C(=O)N1)C(=O)[C@@]1(C)CO1` please.
## Output 1.40 10^−6 cm/sec

## Input Tell me measured Mean Permeability for `CC(C)C[C@H](NC(=O)[C@@H]1CSCCCCCCCCCC(=O)N[C@@H](C(C)C)C(=O)N1)C(=O)[C@@]1(C)CO1` please.
## Output 3.43 10^−6 cm/sec

## Input Tell me measured Mean Permeability for CCCCCC(=O)N[C@H](C(=O)NC(CSc1c(F)c(F)c(F)c(F)c1F)C(=O)N[C@@H](CC(C)C)C(=O)[C@@]1(C)CO1)C(C)C (stereo in doubt) please.
## Output 0.63 10^−6 cm/sec
